readout: melting point

COc1ccc(Cc2cc3ccccc3c(=O)[nH]2)cc1    216 to 218 °C
CC(C(=O)NCC(F)(F)C(F)(F)F)C(=O)NC1C(=O)N(C)c2c(F)cccc2OC1C (centres undefined)    126 to 134 °C
CC(C#Cc1cccc(Oc2ccsc2)c1)N(O)C(N)=O (centres undefined)    93 to 95 °C
CCCc1cc(=O)oc2cc(O)cc(O)c12    227 to 229 °C
COc1cccc(NC(=N)Nc2cccc(OC)c2)c1    134 to 135 °C

Input line: Identify measured melting point corresponding to COCCCCCCCCCCCC(N)=O
Output line: 83.9 to 85.6 °C

Input line: Identify measured melting point corresponding to O=C(Nc1ccc(C(=O)N2CCc3sc(Cc4c[nH]cn4)nc3-c3ccccc32)cc1)c1ccccc1-c1ccccc1
Output line: 192 to 195 °C

Input line: Provide measured melting point value, entry: COC(=O)c1cccc(-c2ccc(O)cc2)c1
Output line: 135 to 136 °C

Input line: State, in one line, measured melting point of CCC1(O)CC(=O)OCc2c1cc1n(c2=O)Cc2c-1nc1ccc(Cl)cc1c2-c1ccccc1F (centres undefined)
Output line: > 250 °C

Input line: Name the recorded melting point of the item CCOCCc1cc(OC)c(-c2ccc(C[C@H](NC(=O)c3c(F)cccc3F)C(=O)O)cc2)c(OC)c1 in your answer.
Output line: 63 to 70 °C
